From: PubChem BioAssay

Recorded inhibition by entry
Assay Remarks: human hepatoma cell viability loss – ATP luminescence, cytotoxicity control for P. falciparum antimalarial project, primary screen (AID 2303);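 note: 0% = DMSO wells and 100% = digitonin-killed cells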
Test Context: HepG2 viability, 24-48 h, at 10 µM, stronger effect = higher value

Molecule	inhibition [%]
N#Cc1cccc(C(=O)Nc2ccc(-c3cccc(CN4CCCC4)c3)cc2)c1	15
Cc1ccccc1NC(=O)NC1CCN(CCCCCNC(=O)/C=C/c2ccc(Cl)c(Cl)c2)CC1	13
COc1ccc(-c2cnc3[nH]cc(-c4ccc(C(=O)O)c(C)c4)c3c2)cn1	23
CCCc1cc(NC2CCN(C)CC2)nc(Nc2ccc(F)cc2)n1	20
O=C(C=Cc1ccc([N+](=O)[O-])cc1)N1CCC(CCN2CCC(c3c[nH]c4ccccc34)CC2)CC1	60
CN1C(=CC(=O)NC(=O)c2ccccc2)C(C)(C)c2ccccc21	-5
CN(C)CCOc1cc(NC(=O)/C=C/c2cccc3ccccc23)ccc1I	55
O=C(Nc1ccccc1)Nc1cccc(-c2nn3c(OCC4CCCCN4)cccc3c2-c2ccncc2)c1 (stereo unspecified)	9
CC(C)NCc1cccc(-c2ccc(NC(=O)c3ccc(C#N)cc3)cc2)c1	15
Cc1nc(N)nc(N)c1-c1ccc(Br)c([N+](=O)[O-])c1	64
Cc1c(S(=O)(=O)Nc2ccc3ccn(CCN(C)C)c3c2)sc2ccc(Cl)cc12	15
O=C(N[C@@H](Cc1ccccc1)CN1CCC(Oc2ccc(F)cc2)CC1)c1ccc(OCCCN2CCCCC2)cc1	38
CC(CCc1ccccc1)NCC(O)c1cccc(C(F)(F)F)c1 (stereo unspecified)	18
COc1cc2nc(-c3ccc(Br)cc3)cc(N)c2cc1OC	90
NC(=O)c1cccc(-n2ccc3cc(CNC4Cc5ccccc5C4)ccc32)c1	17
CC(C)(C)c1cc(C(=O)N2CCN(c3cnccn3)CC2)n(Cc2ccccc2)n1	-1
O=C(C1COc2ccccc2O1)N(CCCn1ccnc1)Cc1csc(-c2ccc(CNCc3ccccc3)cc2)n1 (stereo unspecified)	15
CN1CCN(c2ccnc3ccc(NC(=O)Nc4ccc5c(c4)CCCC5=O)cc23)CC1	8
Cc1cc(NN=Cc2ccccc2[N+](=O)[O-])c2ccc(F)cc2n1	32
Cc1cc(-c2cccc(CNCc3ccc(F)cc3)c2)ccc1S(=O)(=O)NCCN1CCCC1	49
COc1ccc2ncc(Cl)c(CCN3CC[C@@H](CNCc4cc5c(cn4)OCS5)C3)c2n1	22
Cc1[nH]c(C)c(-c2ccc(OCc3ccccc3C(F)(F)F)nc2)c(=O)c1Br	35
O=C(Nc1cccc(-c2nn3ccccc3c2-c2ccnc(Nc3ccccc3)n2)c1)c1c(F)cccc1F	69
Brc1ccc(Nc2nc(NCC3CCCO3)c3ccccc3n2)cc1 (stereo unspecified)	13
O=C(CCCCCNC(=O)c1ccc(O)c(-c2ccc(Cl)c(Cl)c2)c1)NCc1cccc(C(F)(F)F)c1	2
CC(=O)Oc1c(C2CCN(CCCCNC(=O)c3ccc(-c4ccc(C#N)cc4)cc3)CC2)ccc2c1CCCC2	21
Cn1cccc1CCNCc1ccc(-c2cccc(-c3nc4ccc(F)cc4[nH]3)c2)cc1	-2
Cc1cc(OCCCN2CCC(NS(=O)(=O)c3ccc(Cl)c(Cl)c3)CC2)c2ccccc2n1	11
Cc1cccc2[nH]c(-c3ccc(-c4cccc(CN5CCCC5CN)c4)cc3)nc12 (stereo unspecified)	7
O=C(c1ccc(Cl)c(Cl)c1)N1CCc2c([nH]c3ccccc23)C1CN1CCCC1 (stereo unspecified)	83
Cc1c(Cl)cccc1NC(=S)NN=Cc1ccccn1	58
